Data provenance is PubChem BioAssay (NCI).

# System: UACC-257 melanoma
# test.protocol: NCI tumour cell line growth inhibition, 48 h; in the data active = GI50 below about 0.43 µM; inactive = the rest
// one of active, inactive, no free text

q: Hi, do you know how CC(C)NCCCNC1=C(Cl)C(=O)c2ccccc2C1=O came out in this test?
a: inactive

q: Repeat with N#C/C(=C/c1cccs1)c1cccs1
a: inactive

q: Repeat with CCCCCn1ncc(-c2c(O)c(O)cc3c(O)c(-c4c(C)cc5c(-c6cnn(CCCCC)n6)c(O)c(O)cc5c4O)c(C)cc23)n1
a: inactive

q: Repeat with CC(C)(C)c1ccc(NC(=O)c2cc(=O)c3ccccc3[nH]2)c(C(C)(C)C)c1O
a: inactive

q: Repeat with COc1ccc(-n2nc(C)c3c(Nc4ccc(NC(=O)Nc5cc(C(F)(F)F)ccc5F)cc4)ncnc32)cc1
a: inactive

q: Repeat with CC(=O)O[C@H]1CC[C@]2(C)[C@H]3C(=O)C=C4[C@@H]5C[C@](C)(C(=O)N6CCCNCC6)CC[C@]5(C)CC[C@@]4(C)[C@]3(C)CC[C@H]2C1(C)C
a: inactive

q: Repeat with COc1ccc(-c2ccc(=O)oc2-c2cc(OC)c(OC)c(OC)c2)cc1O
a: active

q: Repeat with COc1cc(C)c(N(C)C(=O)CN(C)C)cc1Nc1nc(Nc2cccc(F)c2C(N)=O)c2cc[nH]c2n1
a: inactive

q: Repeat with CC(C)(C)OC(=O)N(CCCn1c2c(c3ccccc3c1=O)C(=O)c1ccccc1-2)CCN(CCCn1c2c(c3ccccc3c1=O)C(=O)c1ccccc1-2)C(=O)OC(C)(C)C
a: inactive

###

Would you mind telling me the reported TGI of each entry?
# Test system: DLD-1 colon
# test.protocol: NCI tumour cell line growth inhibition, 48 h

q: Request the reported TGI associated with CP(=O)(CCSc1ccccc1)c1ccccc1 (stereo unspecified)
a: > 100 µM

q: Repeat with O=C1c2ccccc2C(=O)N1C/C=N/NS(=O)(=O)c1ccc(Cl)cc1
a: > 100 µM

q: Repeat with O=C1c2ccccc2N2OC3C4CCC(C4)C3C12c1ccccc1 (stereo unspecified)
a: > 100 µM

q: Repeat with CC(=O)N1C(=O)C(=O)c2cc(Cl)ccc21
a: > 100 µM

q: Repeat with NC(CCc1nc(-c2ccccc2)cs1)C(=O)O (stereo unspecified)
a: > 100 µM

q: Repeat with O=c1c2cc(-c3ccccc3)sc2nc2sc(-c3ccccc3)nn12
a: > 100 µM

q: Repeat with CCCCCCCCCCSS(=O)(=O)c1ccc(C)cc1
a: 29.8 µM

q: Repeat with COc1ccc(OC)c2c1C(=O)C(Cl)=C(Cl)C2=O
a: 11.8 µM

q: Repeat with COc1cc([C@@H]2c3cc4c(cc3[C@@H](NC(=O)c3ccc(C(C)=O)cc3)C3COC(=O)[C@@H]32)OCO4)cc(OC)c1O (stereo partly specified)
a: 17.7 µM

q: Repeat with CCC(=O)NCC1(c2c[nH]c3ccccc23)SCCS1
a: > 100 µM

q: Repeat with CCCNCC(O)/C=C/[Si](C)(C)C (stereo unspecified) (tested in a mixture with another compound)
a: > 100 µM

q: Repeat with c1ccc2c(c1)[Se]c1ccccc1[Se]2
a: > 100 µM

q: Repeat with Nc1nc(SCCC/C=C/B(O)O)nc2c1ncn2C1OC(CO)C(O)C1O (stereo unspecified)
a: > 243 µM

q: Repeat with CN1C(=O)c2cccc3c([N+](=O)[O-])ccc(c23)C1=O
a: 12.1 µM

q: Repeat with CCC1(c2ccncc2)CCC(=O)NC1=O (stereo unspecified)
a: > 100 µM

q: Repeat with COc1cc2c(cc1O)CCN[C@@]21CS[C@H]2c3c(OC(C)=O)c(C)c4c(c3C(COC1=O)N1C2C2c3c(cc(C)c(OC)c3O)CC([C@@H]1O)N2C)OCO4 (stereo partly specified)
a: 0.0013 µM

q: Repeat with CC1(Br)C(=O)NC(=O)N([C@H]2C[C@H](O)[C@@H](CO)O2)C1N=[N+]=[N-] (stereo partly specified)
a: > 100 µM

q: Repeat with [O-]c1c(-c2ccccc2)[se]c(-c2ccccc2)[n+]1-c1ccccc1
a: 4.48 µM

q: Repeat with CSc1ccc2c(cc1=O)C(NC(=O)c1cc(O)c(OC(=O)O)c(O)c1)CCc1cc(O)c(O)c(O)c1-2 (stereo unspecified)
a: 43.9 µM

q: Repeat with CCCC(=O)C(CC)/C(CCC(=O)N(Cc1ccccc1)Cc1ccccc1)=N/NC(=O)C[N+](C)(C)C (stereo unspecified)
a: > 100 µM

q: Repeat with O=C(Cc1ccccc1)NN1C(=O)C(Cl)C1c1cc(Br)cc(Br)c1O (stereo unspecified)
a: > 100 µM

q: Repeat with C/C(=N\O)C(CN(C)C)C(c1ccccc1)c1c(O)c2ccccc2oc1=O (stereo unspecified)
a: > 100 µM

q: Repeat with CCCCCCc1ccc(O)cc1O
a: > 100 µM

q: Repeat with COC(=O)/C1=C/C2CC(/C=C(/c3ccccc3)C(=O)O1)C2
a: > 100 µM

q: Repeat with COC(=O)c1c(C(=O)OC)c(C(=O)OC)c(C(=O)OC)c1C(=O)OC
a: > 100 µM

q: Repeat with C#CCCCCC#CC1CCCC1C1=CC(=O)c2ccccc21 (stereo unspecified)
a: 24.3 µM

q: Repeat with COc1cc2c(cc1OC)[C@]1(O)C(=O)c3ccc4c(c3O[C@@H]1CO2)C[C@H](C(C)(C)O)O4
a: > 100 µM

q: Repeat with C/C(CC(=O)Nc1ccc(C)cc1)=N\NC(N)=S
a: > 100 µM

q: Repeat with CC(=O)C1C(=O)C(=O)N(c2ccc(Cl)cc2C)C1=O (stereo unspecified)
a: > 100 µM

q: Repeat with CCC1N2CCCCC2[C@@H]2c3[nH]c4ccccc4c3CCN12 (stereo partly specified)
a: > 100 µM

q: Repeat with COc1cc(C(C)c2cc3c(cc2OCCOCCOc2cc4c(cc2C(C)c2cc(OC)c(OC)c(OC)c2)OCO4)OCO3)cc(OC)c1OC (stereo unspecified)
a: > 100 µM

###

# Test system: K-562 leukemia
# test.protocol: NCI tumour cell line growth inhibition, 48 h
outcome.measure: TGI

q: Request the reported TGI associated with COc1ccc(/C=C/c2cc(=O)cc(/C=C/c3ccc(OC)c(O)c3)o2)cc1O
a: > 100 µM

q: Repeat with O=S(=O)(O)c1cc(O)c2c(O)c(N=Nc3ccc(/C=C/c4ccc(N=Nc5c(S(=O)(=O)O)cc6cc(S(=O)(=O)O)cc(O)c6c5O)cc4S(=O)(=O)O)c(S(=O)(=O)O)c3)c(S(=O)(=O)O)cc2c1
a: > 100 µM

q: Repeat with COc1cc([N+](=O)[O-])c(S(=O)(=O)O)cc1-n1nc(-c2ccccc2)n[n+]1-c1cc(S(=O)(=O)[O-])c([N+](=O)[O-])cc1OC
a: > 100 µM

q: Repeat with NC(=O)c1nnc2cc(F)c(F)cc2c1N
a: > 100 µM

q: Repeat with CCCCCCCCCCSS(=O)(=O)c1ccc(C)cc1
a: 46.8 µM

###

# Tested on: NCI/ADR-RES ovarian
# test.protocol: NCI tumour cell line growth inhibition, 48 h
outcome.measure: TGI

q: Request the reported TGI associated with Cn1c(-c2c(N)n(Cc3ccc(Cl)cc3)c3nc(C#N)c(C#N)nc23)nc2ccccc21
a: 10.8 µM

q: Repeat with CC(=O)NC1C(OCc2ccccc2)OC(CO)C(O)C1OCC(=O)NC(C)C(=O)NC(CCC(=O)OCCNC(=O)c1cccc2cc3ccccc3nc12)C(N)=O (centres undefined)
a: 68.1 µM

q: Repeat with Cc1c2ccccc2nc2[nH]c3ccncc3c12
a: 72.4 µM

q: Repeat with COc1cccc2c1[C@H](OC)[C@]13O[C@@]1(C2=O)[C@H](O)[C@H](C)[C@@](O)(C(=O)[C@@H]1O[C@H]1C)[C@@H]3O
a: > 100 µM

q: Repeat with Cc1ccccc1N=Nc1ccc(N=Nc2c(O)ccc3cc(S(=O)(=O)O)cc(S(=O)(=O)O)c23)c(C)c1
a: > 100 µM

q: Repeat with CN(C)CCNc1ccc2nnn3c4ccc(Cl)cc4c(=O)c1c23
a: 15.9 µM

q: Repeat with CCOC(=O)c1c2ccccc2n2c(=O)n(C)nnc12
a: > 100 µM

q: Repeat with Cc1nc(SCC(=O)Nc2ccccc2)c2sc(=S)n(-c3ccccc3)c2n1
a: > 10 µM

q: Repeat with CN1CCN(c2ccc3nc(-c4ccc5nc(-c6ccc(C(F)(F)F)cc6)[nH]c5c4)[nH]c3c2)CC1
a: > 100 µM

###

# Test system: SK-MEL-28 melanoma
# test.protocol: NCI tumour cell line growth inhibition, 48 h
Would you mind telling me the reported TGI of each entry?

q: Request the reported TGI associated with COc1cc2c(cc1O)CCN[C@@]21CS[C@H]2c3c(OC(C)=O)c(C)c4c(c3C(COC1=O)N1C2C2c3c(cc(C)c(OC)c3O)CC([C@@H]1O)N2C)OCO4 (stereo partly drawn)
a: 0.00682 µM

q: Repeat with O=S(=O)(O)c1cc(O)c2c(O)c(N=Nc3ccc(/C=C/c4ccc(N=Nc5c(S(=O)(=O)O)cc6cc(S(=O)(=O)O)cc(O)c6c5O)cc4S(=O)(=O)O)c(S(=O)(=O)O)c3)c(S(=O)(=O)O)cc2c1
a: > 100 µM

q: Repeat with CNNC1=NS(=O)(=O)c2cc(C(=O)OC)c(Cl)cc2S1
a: > 10 µM
